System: MDA-MB-231
protocol-details: IC50 of Compound 1 on breast cells (MTT assay)
Format: cell-based
experimental-conditions: Homo sapiens; MDA-MB-231 cells
value-kind: pIC50
Units for pIC50: none; it is -log10 of a concentration expressed in mol/L.

Task: Name the recorded pIC50 of the molecule listed here: CCCCc1ncc(C(=O)C2CC=C(C(N)=O)N2)cc1C(=O)OCC (stereo not shown)
Result: 5.31

----------
Tested on: MCF-7
protocol-details: IC50 of Compound 1 on breast cells (MTT assay)
Type: cell-based
experimental-conditions: Homo sapiens, MCF7; MCF-7 cells
value-kind: pIC50
Units for pIC50: none; it is -log10 of a concentration expressed in mol/L.

Task: Name the recorded pIC50 of the molecule listed here: CCCCc1ncc(C(=O)C2CC=C(C(N)=O)N2)cc1C(=O)OCC (stereo not shown) [Compound 1]
Result: 5.53
